The values you see were collected from patent US20260217708A1.

IC50 by entry:
tgt: system Xc^− (Homo sapiens, UniProt Q9UPY5)
Sequence (Q9UPY5 whole entry): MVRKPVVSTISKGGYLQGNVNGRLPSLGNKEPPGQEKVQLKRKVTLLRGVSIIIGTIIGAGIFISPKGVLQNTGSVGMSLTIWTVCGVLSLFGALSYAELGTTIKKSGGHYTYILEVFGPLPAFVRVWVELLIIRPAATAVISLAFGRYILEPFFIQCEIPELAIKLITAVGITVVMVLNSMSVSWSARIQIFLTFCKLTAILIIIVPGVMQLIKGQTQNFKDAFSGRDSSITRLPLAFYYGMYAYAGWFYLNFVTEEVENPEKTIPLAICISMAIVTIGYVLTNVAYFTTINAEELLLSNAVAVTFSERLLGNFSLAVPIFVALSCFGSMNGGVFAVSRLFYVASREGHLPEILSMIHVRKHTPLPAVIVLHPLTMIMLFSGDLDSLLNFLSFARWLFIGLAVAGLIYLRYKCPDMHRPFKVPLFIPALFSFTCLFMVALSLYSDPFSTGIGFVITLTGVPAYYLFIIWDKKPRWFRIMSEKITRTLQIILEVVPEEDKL
Sequence (P08195 102-630 partner): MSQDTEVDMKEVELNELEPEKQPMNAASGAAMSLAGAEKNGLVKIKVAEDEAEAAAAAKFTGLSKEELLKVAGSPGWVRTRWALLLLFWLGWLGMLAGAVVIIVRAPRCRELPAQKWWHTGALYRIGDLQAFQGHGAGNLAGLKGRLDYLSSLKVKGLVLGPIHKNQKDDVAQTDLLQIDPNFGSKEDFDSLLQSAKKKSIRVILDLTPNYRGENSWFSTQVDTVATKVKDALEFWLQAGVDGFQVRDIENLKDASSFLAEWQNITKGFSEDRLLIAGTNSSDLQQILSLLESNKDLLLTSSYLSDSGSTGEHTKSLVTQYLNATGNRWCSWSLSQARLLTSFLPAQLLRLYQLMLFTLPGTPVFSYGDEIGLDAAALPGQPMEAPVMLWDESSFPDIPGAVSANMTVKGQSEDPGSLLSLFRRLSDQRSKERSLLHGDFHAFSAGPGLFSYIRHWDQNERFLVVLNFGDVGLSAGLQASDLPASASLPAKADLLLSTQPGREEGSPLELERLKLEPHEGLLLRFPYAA
run_description: Cystine-induced glutamate release assay
Type: cell-based
Set-up: endogenous in cells; host or cells: H4 cells
test_conditions: H4 cells, sodium-free HEPES buffer, 50 μM L-Cystine, 2 hours, Amplex Red glutamate readout; read-out: pIC50 Cystine-induced glutamate release assay (converted)

Example results:
{"compound": "CC1C(=O)N(CC(=O)Nc2ccc(C(F)F)cc2)c2cc(C(F)F)nc(Cl)c2-c2cccnc21 (stereo not drawn)", "tgt": "system Xc^− (Homo sapiens, UniProt Q9UPY5)", "result": "< 0.0158 µM"}
{"compound": "COc1cc2c(c(OC)n1)-c1cccnc1C(C)C(=O)N2CC(=O)Nc1ccc(C(F)(F)F)cn1 (single isomer, unassigned)", "tgt": "system Xc^− (Homo sapiens, UniProt Q9UPY5)", "result": "0.0158 to 0.0398 µM"}

q: Give the value of IC50 reported for the following: CC1C(=O)N(CC(=O)Nc2ccc(C(F)(F)F)nc2)c2cc(N3CC(F)(F)C3)ccc2-c2cccnc21 (single isomer, unassigned)
a: 0.0398 to 0.1 µM

q: Assign IC50 to the following record: Cc1cc2c(c(Cl)n1)-c1cccnc1C(C)C(=O)N2CC(=O)Nc1ccc(Br)c(F)c1 (single isomer, unassigned)
a: 0.0158 to 0.0398 µM
